z-score listing for selected compounds.
Experiment: Plasmodium falciparum growth inhibition, primary screen, strain 3D7, DAPI fluorescence, 100 nL (AID 1184);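 also: parasites grown inside human red blood cells in medium with human serum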
Conditions: P. falciparum 3D7 growth, 3 d, higher = more signal
Measured Quantity: z-score

1. COC(=O)C1=CC(CCCO)=CC(C2CC2)N(C)C=C1C(=O)OC (stereo not given)    0.493
2. COCCOC(=O)N1C(=O)[C@@]2(c3cc(C#CC4=CCCCC4)ccc31)[C@H](c1ccc(OCCO)cc1)N1[C@H](c3ccccc3)[C@H](c3ccccc3)OC(=O)[C@H]1[C@@H]2C(=O)N1CCN(c2ncccn2)CC1    -2.19
3. CCOC(=O)C[C@H]1[C@H](OC(=O)c2ccccc2-c2ccccc2)[C@@H](NC(=O)c2ccc(-c3ccccc3)cc2)c2cc(OCCCO)ccc2N1C(=O)c1ccc2ccccc2n1    -0.557
4. CC(C)[Si](C#CCCCC#N)(O[C@H](c1ccccc1)c1cn([C@H](CO)Cc2ccccc2)nn1)C(C)C    0.0921
5. C=CCOC(=O)[C@H]1[C@@H]2C(=O)O[C@@H](c3ccccc3)[C@@H](c3ccccc3)N2[C@@H](c2ccc(OCCOC(=O)[C@H]3C[C@H]4C(=O)N[C@@H](CCCCNC(C)=O)C(=O)N4[C@H]3c3ccc(O)cc3)cc2)[C@]12C(=O)Nc1ccccc12    -1.72

###

Assay: osmotic lysis modulators in infected erythrocytes, primary screen, PSAC antagonist project, cell-based, P. falciparum Indochina, OD700, 3 h (AID 1156)
Details: higher = more signal, called active from +8 up or from −8 down
Reported z-score by item:
Measured Quantity: z-score

1) CC(C)(C)N1CC=CC23O[C@@H]4C=CCCOC(=O)C4[C@H]2C(=O)N(CCO)[C@@H]3C1=O (stereo partly specified)    1.28
2) COC(=O)c1cn(C[C@@H](Cc2ccccc2)NC(=O)N[C@H](CO)CCc2oc(C(C)=O)c(C(=O)OC)c2C(=O)OC)nn1    1.08
3) CC(=O)NCCCC[C@@H]1NC(=O)[C@@H]2C[C@H](C(=O)NCCCC[N+](C)(C)C)[C@H](c3ccc(O)cc3)N2C1=O    0.267
4) Cc1ccc(S[C@]2(C(=O)NCC(F)(F)F)CC(=O)N(Cc3ccccc3C(F)(F)F)[C@@H]2c2ccc(CO)cc2I)cc1    1.1
5) COC(=O)[C@@]1(Cc2ccccc2)[C@H]2c3cc(C(=O)N(C)C)n(CCc4ccc(O)c(OC)c4)c3C[C@H]2CN1C(=O)c1ccccc1    -0.692
6) [N-]=[N+]=NCc1ccccc1[C@H]1OC(c2ccc(OCCCO)cc2)=N[C@@]1(CCS(=O)(=O)c1ccccc1)C(=O)NCC(O)CO (stereo partly specified)    2.23
7) COC(=O)[C@@]1(Cc2ccc(OC)cc2)[C@H]2c3cc(C(=O)N4CCCC4)n(Cc4c(-c5ccccc5)noc4C)c3C[C@H]2CN1C(=O)c1ccccc1    -0.749
8) COC(=O)Cn1c(C(=O)N(C)C)cc2c1C[C@H]1CN(C(=O)c3ccccc3)[C@@](Cc3ccc(F)cc3)(C(=O)OC)[C@@H]21    0.13
9) C=CC[C@]1(C(=O)O)COC(c2ccc(OCCCO)cc2)=N1    0.472
10) CC1=C([C@H](O)CCc2ccccc2)[C@H](CO)[C@@H]2C(=O)N(C)C(=O)[C@@H]2C1    -0.0722
11) CC(C)OC(=O)C=C1C[C@@H](c2ccc(C(F)(F)F)cc2)O[C@@H](c2ccc(C(F)(F)F)cc2)O1    -0.101
12) CN(C)CCCNC(=O)[C@@]1(C)c2ccccc2C(=O)N(Cc2ccccc2)[C@H]1c1ccc(CO)cc1    1.32
13) COCCOC(=O)N1C(=O)[C@@]2(c3cc(C#Cc4ccc(OC)cc4)ccc31)[C@H](c1ccc(O)cc1)N1[C@H](c3ccccc3)[C@H](c3ccccc3)OC(=O)[C@H]1[C@@H]2C(=O)N1CCCCCCC1    -1.3
14) Cc1ccc(S[C@]2(C(=O)NCC(F)(F)F)CC(=O)N(Cc3ccccc3)[C@@H]2c2ccc(CO)cc2I)cc1    0.173
15) C[C@@H]1ON(c2ccc(C(=O)OC(C)(C)C)cc2)[C@H](c2ccc(O)cc2)[C@H]1C(=O)N1C(=O)OC[C@H]1Cc1ccccc1    -0.348
16) CCC(CC)C(O)C1C=CC2C(=O)N(c3ccccc3)C(=O)C2N1Nc1ccc(C(C)C)cc1 (stereo unspecified)    0.741
17) CN(C)CCCCNC(=O)[C@@H]1C[C@@H]2C(=O)N[C@@H](Cc3ccccc3)C(=O)N2[C@@H]1c1cccc(OCCO)c1    -1.84
18) O=C1O[C@@H](c2ccccc2)[C@@H](c2ccccc2)N2[C@@H](c3ccc(OCCO)cc3)[C@]3(C(=O)Nc4ccccc43)[C@@H](C(=O)O)[C@H]12    -0.202
19) COCCOC(=O)N1C(=O)[C@@]2(c3cc(C#CC4=CCCCC4)ccc31)[C@H](c1ccc(O)cc1)N1[C@H](c3ccccc3)[C@H](c3ccccc3)OC(=O)[C@H]1[C@@H]2C(=O)N1CCN(c2ncccn2)CC1    0.299
20) CC(C)N1C(=O)c2ccccc2[C@@H](C(=O)NC2CC2)[C@@H]1c1ccc(CO)cc1    -0.0836
21) [N-]=[N+]=Nc1ccccc1[C@H]1OC(c2ccc(OCCCO)cc2)=N[C@@]1(Cc1ccccc1)C(=O)N1CCCCC1    2.35
22) CN1C(=O)C2C=CC(C(O)COCc3ccccc3)N(N(c3ccccc3)c3ccccc3)C2C1=O (stereo unspecified)    0.361
23) CC(C)C(CO)N1C(=O)[C@@H]2C3C(=O)OCCC/C=C\[C@H]3OC23C=CCN(C(C)(C)C)C(=O)[C@@H]13 (stereo partly specified)    0.441
24) C[N+](C)(C)CCCC[C@@H]1NC(=O)[C@H]2C[C@@H](C(=O)NCCCCCCN)[C@@H](c3ccc(O)cc3)N2C1=O    -2.08
25) C[N+](C)(C)CCCCCCNC(=O)[C@H]1C[C@H]2C(=O)NCC(=O)N2[C@H]1c1ccc(O)cc1    -1.2
26) COCCOC(=O)N1C(=O)[C@@]2(c3cc(C#Cc4ccc(OC)cc4)ccc31)[C@H](c1ccccc1OCCO)N1[C@H](c3ccccc3)[C@H](c3ccccc3)OC(=O)[C@H]1[C@@H]2C(=O)N1CCCCCCC1    0.338

###

Assay: binders of probe aFSTL3 on microarray, primary screen, stem cell growth factor project, biochemical, small-molecule microarray, fluorescence 635/667 (AID 1064);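 also: measures binding of the biotinylated anti-FSTL3 antibody to printed compounds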
Details: higher = more signal
Measured Quantity: composite z-score

1) COC(=O)[C@@]1(Cc2ccccc2)[C@H]2c3cc(C(=O)N(C)C)n(Cc4c(CO)[nH]cc(C)c4=O)c3C[C@H]2CN1C(=O)c1ccccc1    0.268
2) CN1C(=O)C2C=CC(C(O)c3ccc(F)cc3)N(Nc3ccccc3)C2C1=O (stereo not given)    -0.12
3) CCCCCCc1nc(-c2cc(C)c(OC)c(C)c2)c(C)c2c1[Si](C(C)C)(C(C)C)OC2    -0.0656
4) C=C(C)c1cc2c(c(CCCCCC)n1)[Si](C(C)C)(C(C)C)OC2    -0.392
5) OCCCC1=CC(c2ccc(CN3CCCC3)cc2)N(Cc2sc3ccccc3c2Cl)CC1 (stereo not given)    1.46

###

Experiment: P. aeruginosa biofilm formation inhibitors, primary screen, strain PAO1, LB-PBS medium, absorbance 600 nm (AID 1176); also: test concentration not given here
Conditions: P. aeruginosa PAO1 growth/biofilm, A600, 12 h; higher = more signal
Measured Quantity: z-score

1) COc1ccc(NC(=O)O[C@H]2[C@H](OC(=O)Nc3ccccc3)[C@H](OC(=O)Nc3ccccc3)[C@@H](OC)O[C@@H]2CO)cc1    0.509
2) CCCCCCc1nc(C2CC2)cc2c1[Si](C(C)C)(C(C)C)OC2    -0.227
3) [N-]=[N+]=Nc1ccccc1[C@H]1OC(c2ccc(OCCCO)cc2)=N[C@@]1(CCS(=O)(=O)c1ccccc1)C(=O)NCCN1CCOCC1    0.537
4) CN1C(=O)C2C=CC(C(O)C#Cc3ccccc3)N(Nc3ccccc3)C2C1=O (centres undefined)    -0.103

###

Test: small-molecule binders of probe aLefty1, primary screen, biochemical, small-molecule microarray, 635/667 nm fluorescence (AID 1153);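 also: score merges spot fluorescence with signal-to-noise ratio from the scanned slide images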
Details: higher = more signal
Quick reference for composite z-score among some compounds
Measured Quantity: composite z-score

1) COc1ccc(C(O)C2C=CC3C(=O)N(c4ccccc4)C(=O)C3N2Nc2ccc([N+](=O)[O-])cc2)cc1 (stereo not drawn)    0.987
2) C=CCN1Cc2ccccc2[C@H]2OC(c3ccc(OCCCO)cc3)=N[C@@]2(CC=C)C1=O    0.692
3) COCCCNC(=O)[C@]1(CCS(=O)(=O)c2ccccc2)N=C(c2ccc(OCCCO)cc2)O[C@@H]1c1ccccc1N=[N+]=[N-]    -0.0087
4) CC(=O)NCCCC[C@@H]1NC(=O)[C@H]2C[C@@H](C(=O)NCCCC[N+](C)(C)C)[C@@H](c3cccc(OCCO)c3)N2C1=O    0.165
5) COC(=O)[C@@]1(Cc2ccc(OC)cc2)[C@H]2c3cc(C(=O)N(C)C)n(C[C@H](O)CO)c3C[C@H]2CN1C(=O)c1ccccc1    0.523
6) O=C(NCC(F)(F)F)[C@@H]1c2ccccc2C(=O)N(Cc2ccccc2C(F)(F)F)[C@H]1c1ccc(CO)cc1    -0.0164
7) CN(C)C(=O)[C@@]1(CCS(=O)(=O)c2ccccc2)N=C(c2ccc(OCCCO)cc2)O[C@H]1c1ccccc1    0.142
8) CCCCCCCCCCC(O)C1C=CC2C(=O)N(C)C(=O)C2N1NC(=O)OC(C)(C)C (stereo not drawn)    -0.239
